The following molecules each carry a recorded Ki for Tyrosine-protein kinase ABL1 (Homo sapiens, UniProt P00519).

[
  {
    "molecule": "Clc1cccc(Nc2nc(N3CCOCC3)nc3c2cnn3CC(Cl)c2ccccc2)c1 (configuration not stated)",
    "Ki": "390 nM"
  },
  {
    "molecule": "ClC(Cn1ncc2c(NCc3ccccc3)nc(SCCN3CCOCC3)nc21)c1ccccc1 (configuration not stated)",
    "Ki": "90 nM"
  }
]

----------
Assay: Apparent permeability of the compound at pH 7.4 by PAMPA assay
Format: ADME
Lab note: compare Papp against 10 ×10⁻⁶ cm/s. Equal or greater, write satisfied. Smaller, write not satisfied.

[
  {
    "molecule": "OCCNc1nc(NCCc2ccccc2)c2cnn(/C=C\\c3ccccc3)c2n1",
    "answer.label": "not satisfied"
  },
  {
    "molecule": "Clc1ccc(C(Cl)Cn2ncc3c(NCc4ccncc4)ncnc32)cc1 (configuration not stated)",
    "answer.label": "not satisfied"
  },
  {
    "molecule": "Clc1cccc(Nc2nc(N3CCOCC3)nc3c2cnn3CC(Cl)c2ccccc2)c1 (configuration not stated)",
    "answer.label": "satisfied"
  },
  {
    "molecule": "CC(Cn1ncc2c(Nc3cccc(Cl)c3)ncnc21)c1ccccc1 (configuration not stated)",
    "answer.label": "satisfied"
  },
  {
    "molecule": "Fc1ccc(CNc2ncnc3c2cnn3CC(Cl)c2ccc(F)cc2)cc1 (configuration not stated)",
    "answer.label": "satisfied"
  },
  {
    "molecule": "ClC(Cn1ncc2c(NCc3ccccc3)nc(SCCN3CCOCC3)nc21)c1ccccc1 (configuration not stated)",
    "answer.label": "not satisfied"
  }
]

# credit: ChEMBL document CHEMBL1773066
